# System: HEK-293T
# Test Method Notes: Multiplex assay against HEK293T
# Format: toxicity, cell-based
# Condition Notes: human, 48 h, 10 µM, compound concentration 10 uM, replicate 1
Measured Quantity: Total Cell Count

Worked cases, Total Cell Count given:
| Molecule | Measured Quantity | Assay Value |
| --- | --- | --- |
| COc1ccccc1N1CCN(CCCCNC(=O)c2ccc3ccccc3c2)CC1.Cl | Total Cell Count | 519 |
| C[C@H](NC(=O)c1c(C(F)F)nn(C)c1Oc1cccc(C(F)(F)F)c1)c1ccc(C(=O)O)cc1 | Total Cell Count | 821 |

Report Total Cell Count for each item below.
1. C[C@H]1[C@H]2CC[C@H]3[C@@H]4CC=C5C[C@@H](N(C)C)CC[C@]5(C)[C@H]4CC[C@]23CN1C
2. COc1cc(C(=O)N(CCCc2ccccc2)Cc2ccc(CC(=O)O)cc2)cc(OC)c1C
3. CN1CCN(c2nc3cc(C(F)(F)F)ccc3n3cccc23)CC1.O=C(O)/C=C\C(=O)O.O=C(O)/C=C\C(=O)O
4. CN(C)c1ccnc2sc3c(=O)n(N4CCCCCC4)cnc3c12
5. CN(C)CCCc1cc(C(=O)Nc2ccc(-c3ccncc3)cc2)ccc1O.Cl.Cl
6. COc1ccc2c(c1)C(C(=O)N(Cc1ccc(N(C)C)cc1)c1ccc(C(C)C)cc1)CCC2.Cl (stereo unspecified)

## Result
767
729
672
497
883
558

Report Total Cell Count for each item below.
1. Oc1c(CN2CCN(c3ccccn3)CC2)cc(Cl)c2cccnc12
2. Cc1ccc(C(C)(O)c2nc3ccccc3s2)c(C)c1 (stereo unspecified)
3. N[C@@]1(C(=O)O)CO[C@H]2[C@H](C(=O)O)[C@H]21
4. O=C1COc2nccc(-c3ccccc3F)c2CN1Cc1cc(C(F)(F)F)cc(C(F)(F)F)c1
5. Cc1ccc(-c2ccc(F)cc2COc2ccc(CCC(=O)O)cc2)cc1
6. Cl.Clc1ccc2nsnc2c1NC1=NCCN1 [TIZANIDINE HYDROCHLORIDE]
7. CN1CCN2c3ncccc3Cc3ccccc3C2C1 (stereo unspecified)
8. CCCn1c(=O)c2[nH]c(C3CCCC3)nc2n(CCC)c1=O

## Result
1: 204; 2: 713; 3: 781; 4: 713; 5: 713; 6: 995; 7: 390; 8: 511

Report Total Cell Count for each item below.
1. CCCN1CCC[C@@H]2Cc3n[nH]cc3C[C@H]21.Cl [QUINPIROLE HYDROCHLORIDE]
2. Cc1nc2ccc(Oc3ccc(F)cc3)cc2c(=O)n1C[C@H]1CCCN(C(C)C)C1.Cl
3. c1cc(OCCCN2CCCCC2)ccc1CN1CCCCC1
4. COc1cc(NC(=O)CCN2CCC(OC(=O)Nc3ccccc3-c3ccccc3)CC2)c(Cl)cc1CNC[C@H](O)c1ccc(O)c2[nH]c(=O)ccc12
5. CSc1ccccc1N1CCN(CCCCCC(=O)NC2CCCc3ccccc32)CC1.Cl (stereo unspecified)

## Result
1: 772; 2: 754; 3: 619; 4: 13; 5: 365

Report Total Cell Count for each item below.
1. Cc1ccccc1C(=O)Nc1ccc(C(=O)N2CCCC(N(C)C)c3ccccc32)cc1.Cl (stereo unspecified)
2. CC(C)(C)c1ccc(S(=O)(=O)Nc2ccc(Cl)cc2C(=O)c2cc[n+]([O-])cc2)cc1
3. O=S(=O)(c1ccccc1)c1cnc2c(N3CCNCC3)cccc2c1 [INTEPIRDINE]
4. CSCC[C@H](NC=O)C(=O)N[C@@H](CC(C)C)C(=O)N[C@@H](Cc1ccccc1)C(=O)O
5. CCOc1c2c(c(OCC)c3ncccc13)CN(c1ccc(CS(=O)(=O)NC(=O)Cc3ccccc3OC)cc1C)C2=O

## Result
[283, 929, 606, 704, 631]

Report Total Cell Count for each item below.
1. C[C@@H]1C[C@H]2[C@@H]3CCC4=CC(=O)C=C[C@]4(C)[C@@]3(F)[C@@H](O)C[C@]2(C)[C@@]1(O)C(=O)CO
2. O=C(NCCO)c1cccc(-c2cc(Nc3ccc(OC(F)(F)F)cc3)ncn2)c1
3. Cc1ccc(F)cc1C(=O)Nc1ccc(C(=O)N2Cc3cccn3Cc3ccccc32)c(Cl)c1
4. CC(=O)NCCc1c(Cc2ccccc2)[nH]c2ccccc12
5. CCNC1(C(N)=O)CCN(c2ncnc3c2nc(-c2ccccc2Cl)n3-c2ccc(Cl)cc2)CC1
6. O=C(NCC(=O)N1CC[C@H](N[C@H]2CC[C@@](O)(c3ccc(-c4ncccn4)cn3)CC2)C1)c1cccc(C(F)(F)F)c1

## Result
1. 760
2. 595
3. 489
4. 742
5. 560
6. 636

Report Total Cell Count for each item below.
1. CCCC(CCC)C(=O)O
2. CC1(COc2ccc3c(c2)ncn3-c2ccc3cccc(N4CCC(N)CC4)c3n2)COC1
3. O=C(O)c1cc2ccccc2c(Cc2c(O)c(C(=O)O)cc3ccccc23)c1O
4. COc1c(C)cc(NC(=O)c2nn(Cc3ccc(F)cc3)c3c2CN(C(=O)c2ccc[nH]2)C[C@]3(C)C(N)=O)cc1C

## Result
[1088, 400, 879, 467]
